Hey, just so you know, these numbers are from patent US20240165244A1.

Entries and their Dmax
Target: SMARCA4 (Homo sapiens)
Construct: SMARCA4-HiBiT knock-in Hela monoclonal cell (CS3023226); host or cells: HeLa monoclonal cells with heterozygous HiBiT knock-in at the endogenous SMARCA4 locus
Experiment: SMARCA4 HiBiT degradation assay in HeLa cells
Type: cell-based
Settings: 18 hours, highest concentration 10 μM

The cases that follow already have their Dmax on record.
Molecule	Measurement Kind	Reported Result
O=C1CCC(N2Cc3ccc(N4CCN(Cc5cnc(O[C@H]6CN7c8cc(-c9cccc(F)c9O)nnc8NC[C@@]7(CF)C6)c(F)c5)CC4)cc3C2=O)C(=O)N1 (stereo partly drawn)	Dmax	50 to 75%
Cc1nc(O[C@H]2CN3c4cc(-c5cccc(F)c5O)nnc4NC[C@]3(C(F)F)C2)nc(C)c1CN1CCN(c2ccc3c(c2)C(=O)N(C2CCC(=O)NC2=O)C3)CC1 (stereo partly drawn)	Dmax	< 50%

From here, focus on the item given below.
Given the entry Cc1cc(O[C@@H]2C[C@@H]3CNc4nnc(-c5cc(F)cc(F)c5O)cc4N3C2)ncc1CN1CCN(c2ccc3c(c2)C(=O)N(C2CCC(=O)NC2=O)C3)CC1 (stereo partly drawn) , report its measured Dmax. 50 to 75%

---

Target: SMARCA4 (Homo sapiens)
Construct: SMARCA4-HiBiT knock-in Hela monoclonal cell (CS3023226); host or cells: HeLa monoclonal cells with heterozygous HiBiT knock-in at the endogenous SMARCA4 locus
Experiment: SMARCA4 HiBiT degradation assay in HeLa cells
Format: cell-based
Conditions: 18 hours, highest concentration 10 μM
Measurement Kind: Dmax

The cases that follow already have their Dmax on record.
Molecule	Measurement Kind	Reported Result
CC[C@@]12CNc3nnc(-c4cccc(F)c4O)cc3N1C[C@H](Oc1cc(C)c(CN3CCC(c4ccc5c(c4)C(=O)N(C4CCC(=O)NC4=O)C5)CC3)cn1)C2 (some centres unmarked) [Example 106]	Dmax	< 50%
Cc1c(CN2CCN(c3ccc4c(c3)C(=O)N([C@H]3CCC(=O)NC3=O)C4)CC2)cnc(O[C@H]2CN3c4cc(-c5cccc(F)c5O)nnc4NC[C@@]3(C(F)F)C2)c1C [Example 86]	Dmax	< 50%
Cc1c(O[C@H]2CN3c4cc(-c5cccc(F)c5O)nnc4NC[C@]3(C(F)F)C2)cnc(CN2CCN(c3ccc4c(c3)C(=O)N([C@H]3CCC(=O)NC3=O)C4)CC2)c1C [Example 46]	Dmax	> 75%

Given the entry CCc1cc(CN2CCN(c3ccc4c(c3)C(=O)N([C@H]3CCC(=O)NC3=O)C4)CC2)cnc1O[C@H]1CN2c3cc(-c4cccc(F)c4O)nnc3NC[C@]2(C(F)F)C1 [Example 47] , report its measured Dmax. > 75%

Please answer likewise for O=C1CCC(N2Cc3ccc(N4CCN(Cc5cnc(O[C@H]6CN7c8cc(-c9cccc(F)c9O)nnc8NC[C@]7(C(F)F)C6)nc5)CC4)cc3C2=O)C(=O)N1 (some centres unmarked) [Example 42] < 50%

---

Entries and their DC50
Target: SMARCA4 (Homo sapiens, UniProt P51532)
Construct: SMARCA4-HiBiT knock-in Hela monoclonal cell (CS3023226); host or cells: HeLa monoclonal cells with heterozygous HiBiT knock-in at the endogenous SMARCA4 locus
Sequence (P51532 whole entry): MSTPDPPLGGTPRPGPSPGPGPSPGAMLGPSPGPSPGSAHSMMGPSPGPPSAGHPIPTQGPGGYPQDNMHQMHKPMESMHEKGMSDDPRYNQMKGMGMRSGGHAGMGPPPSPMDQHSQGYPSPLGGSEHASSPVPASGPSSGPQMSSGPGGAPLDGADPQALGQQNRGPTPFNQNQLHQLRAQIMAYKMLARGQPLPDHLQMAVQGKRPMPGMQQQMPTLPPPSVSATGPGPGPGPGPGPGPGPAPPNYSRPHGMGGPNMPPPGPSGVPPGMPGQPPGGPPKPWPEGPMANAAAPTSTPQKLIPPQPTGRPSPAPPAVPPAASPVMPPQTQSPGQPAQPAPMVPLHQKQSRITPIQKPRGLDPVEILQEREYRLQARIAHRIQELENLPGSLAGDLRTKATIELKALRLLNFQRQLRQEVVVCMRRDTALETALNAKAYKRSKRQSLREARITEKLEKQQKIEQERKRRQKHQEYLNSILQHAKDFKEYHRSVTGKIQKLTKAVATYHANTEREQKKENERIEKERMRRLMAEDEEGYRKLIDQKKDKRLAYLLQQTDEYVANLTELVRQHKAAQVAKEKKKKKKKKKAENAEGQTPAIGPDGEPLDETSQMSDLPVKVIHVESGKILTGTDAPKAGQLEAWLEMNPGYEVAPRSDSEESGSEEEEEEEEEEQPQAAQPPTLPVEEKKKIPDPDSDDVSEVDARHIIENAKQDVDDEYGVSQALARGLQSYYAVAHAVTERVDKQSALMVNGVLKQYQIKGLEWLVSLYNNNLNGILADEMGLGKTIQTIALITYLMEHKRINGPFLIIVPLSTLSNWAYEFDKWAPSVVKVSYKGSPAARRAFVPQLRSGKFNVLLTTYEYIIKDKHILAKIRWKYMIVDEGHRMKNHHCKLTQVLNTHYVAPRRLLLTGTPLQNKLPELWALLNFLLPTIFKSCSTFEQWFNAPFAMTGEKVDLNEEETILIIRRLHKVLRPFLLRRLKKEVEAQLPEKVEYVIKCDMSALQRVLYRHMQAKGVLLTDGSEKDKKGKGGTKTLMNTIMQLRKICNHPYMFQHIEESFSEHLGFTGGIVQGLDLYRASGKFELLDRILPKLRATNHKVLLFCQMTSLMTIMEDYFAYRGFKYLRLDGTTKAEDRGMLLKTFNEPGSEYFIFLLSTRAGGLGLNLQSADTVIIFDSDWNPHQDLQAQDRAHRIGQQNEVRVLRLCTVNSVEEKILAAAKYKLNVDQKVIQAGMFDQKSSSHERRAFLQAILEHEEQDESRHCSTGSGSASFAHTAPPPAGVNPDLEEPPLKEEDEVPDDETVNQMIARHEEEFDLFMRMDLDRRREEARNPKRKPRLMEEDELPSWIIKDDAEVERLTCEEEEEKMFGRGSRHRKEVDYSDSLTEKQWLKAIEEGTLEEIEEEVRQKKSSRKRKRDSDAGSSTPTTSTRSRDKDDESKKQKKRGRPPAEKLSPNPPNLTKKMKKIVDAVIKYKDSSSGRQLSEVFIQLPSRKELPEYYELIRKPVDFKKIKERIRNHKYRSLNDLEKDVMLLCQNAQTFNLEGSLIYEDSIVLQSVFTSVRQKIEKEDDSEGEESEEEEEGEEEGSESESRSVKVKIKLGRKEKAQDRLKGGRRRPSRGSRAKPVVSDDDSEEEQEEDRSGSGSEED
Experiment: SMARCA4 HiBiT degradation assay in HeLa cells
Assay type: cell-based
Settings: 18 hours, highest concentration 10 μM

The cases that follow already have their DC50 on record.
Molecule	DC50
Cc1nc(CN2CCN(c3ccc4c(c3)C(=O)N([C@H]3CCC(=O)NC3=O)C4)CC2)cnc1O[C@H]1CN2c3cc(-c4cccc(F)c4O)nnc3NC[C@]2(CF)C1	< 0.1 µM
O=C1CCC(N2Cc3ccc(C4CCN(Cc5cnc(O[C@H]6CN7c8cc(-c9cccc(F)c9O)nnc8NC[C@@]7(C(F)F)C6)c(F)c5)CC4)cc3C2=O)C(=O)N1 (some centres unmarked)	0.1 to 1 µM

Given the entry "CC[C@]12CNc3nnc(-c4cccc(Cl)c4O)cc3N1C[C@H](Oc1cnc(CN3CCC(c4ccc5c(c4)C(=O)N([C@H]4CCC(=O)NC4=O)C5)CC3)c(Cl)c1)C2" , report its measured DC50. < 0.1 µM

Please answer likewise for O=C1CCC(N2Cc3ccc(N4CCN(Cc5ccc(O[C@@H]6C[C@@H]7CNc8nnc(-c9cc(F)cc(F)c9O)cc8N7C6)cn5)CC4)cc3C2=O)C(=O)N1 (some centres unmarked) < 0.1 µM

Please answer likewise for O=C1CCC(N2Cc3ccc(N4CCN(Cc5ccc(O[C@@H]6C[C@@H]7CNc8nnc(-c9cc(F)cc(F)c9O)cc8N7C6)cc5)CC4)cc3C2=O)C(=O)N1 (some centres unmarked) < 0.1 µM

Please answer likewise for O=C1CCC(N2Cc3ccc(N4CCN(Cc5ccc(O[C@@H]6C[C@@H]7CNc8nnc(-c9cc(F)cc(F)c9O)cc8N7C6)nc5)CC4)cc3C2=O)C(=O)N1 (some centres unmarked) < 0.1 µM

Please answer likewise for "Cc1cc(O[C@@H]2C[C@@H]3CNc4nnc(-c5cc(F)cc(F)c5O)cc4N3C2)ncc1CN1CCC(c2ccc3c(c2)C(=O)N([C@H]2CCC(=O)NC2=O)C3)CC1" < 0.1 µM

Please answer likewise for "Cc1nc(O[C@H]2CN3c4cc(-c5cccc(F)c5O)nnc4NC[C@]3(C(F)F)C2)c(C)nc1CN1CCN(c2ccc3c(c2)C(=O)N([C@H]2CCC(=O)NC2=O)C3)CC1" 0.1 to 1 µM
